Test system: SNB-75
method: NCI tumour cell line growth inhibition, 48 h
Active and inactive are the calls of the source. Cut-off read from the data, not from the text of the source: active = GI50 up to about 1.1 µM and inactive = higher.
Outcome codes: true (1) (active), false (0) (inactive)

compound	group-label
Cc1c(C)c(CC(=O)N2CC2)c(C)c(C)c1CC(=O)N1CC1	false (0)
CC1=NCCc2cc3[nH]c4ccccc4c3cc21	false (0)
C/C=C/C[C@@H](C)[C@@H](O)[C@H]1C(=O)N[C@@H](CC)C(=O)N(C)CC(=O)N(C)[C@@H](CC(C)C)C(=O)N[C@@H](C(C)C)C(=O)N(C)[C@@H](CC(C)C)C(=O)N[C@@H](C)C(=O)N[C@H](C)C(=O)N(C)[C@@H](CC(C)C)C(=O)N(C)[C@@H](CC(C)C)C(=O)N(C)[C@@H](C(C)C)C(=O)N1C	false (0)
COC(=O)C1(Cc2ccccc2)Cc2ccccc2C1=O (stereo not drawn)	false (0)
CCOC(=O)CN(CC)C(=O)NC12CC3CC(CC(C3)C1)C2	false (0)
CCOc1ccc(/C=C2\NC(=S)N(/C=C3\C(=O)Oc4ccccc4C3=O)C2=O)cc1	false (0)
COc1nc2c(nc(N)n2C2OC(CO)C(O)C(O)C2O)c(=O)n1C (stereo not drawn)	false (0)
Nc1nn2c(C(Br)Br)cc(C(Br)Br)nc2c1[N+](=O)[O-]	true (1)
C=C[C@@]1(O)CCCC[C@@H]1CC(Sc1ccccc1)Sc1ccccc1	false (0)
c1ccc2c(c1)SCCCSCCCS2	false (0)
CC(=O)Nc1ccc(Nc2cc(=O)n(C)c(=O)[nH]2)cc1	false (0)
NC(=O)C(=CNC(=S)Nc1cccc(C(F)(F)F)c1)C(N)=O	false (0)
CC1(N2CCOCC2)CC2C(=[N+]1[O-])CCC/C2=N/O (stereo not drawn)	true (1)

---

// reported GI50 for each item listed
Test system: HT-29
method: NCI tumour cell line growth inhibition, 48 h
Activity calls are given as the source filed them. No stated cut-off is given here; in the data, active = GI50 up to about 1.1 µM and inactive = higher.
assay-metric: GI50

compound	result
Cc1ccc(S(=O)(=O)O/N=C2\CCC\C2=C/c2ccccc2)cc1	25.3 µM (inactive)
Cc1ccccc1NC(=O)CC(=O)NNC(Sc1ccccc1)c1cc(/N=N/c2ccc(Br)cc2)ccc1O (stereo not drawn)	9.48 µM (inactive)
CSc1c(C#N)c2n(c3ccccc3[n+]2C)c2ncccc12	26.7 µM (inactive)

---

Test system: SF-295
method: NCI tumour cell line growth inhibition, 48 h
Active and inactive are the calls of the source. No stated cut-off is given here; in the data, active = GI50 up to about 1.1 µM and inactive = higher.
assay-metric: GI50

compound	result
CCOC(=O)C(NC(=O)CC)(Nc1ccc(S(=O)(=O)Nc2ccc(OC)nn2)cc1)C(F)(F)F (centres undefined)	> 100 µM (inactive)
CC(C)(Cl)C(Br)CCC(C)(Cl)C(Br)CBr (centres undefined)	20.2 µM (inactive)
O=[N+]([O-])c1cc(Cc2cc([N+](=O)[O-])c3cccnc3c2O)c(O)c2ncccc12	6.15 µM (inactive)
O=C(CCCC1Cc2ccccc2C1=O)c1ccccc1 (centres undefined)	47.5 µM (inactive)
Cc1ccc(S(=O)(=O)O/N=C2\CCC\C2=C/c2ccccc2)cc1	22.8 µM (inactive)
Cn1c(=O)cc(NNc2ccc(Br)cc2)[nH]c1=O	13.4 µM (inactive)
CC1=Nc2c(O)nc(S)nc2NC(c2ccc(Cl)c(Cl)c2)C1 (centres undefined)	20.1 µM (inactive)
OCC1C(OCc2ccccc2)C(OCc2ccccc2)C(OCc2ccccc2)CN1Cc1ccccc1 (centres undefined)	30.3 µM (inactive)
CC(=O)[C@H]1[C@@H](OCc2ccccc2)O[N+]([O-])=C(C)[C@@H]1c1ccccc1	75.2 µM (inactive)
C=CCOn1c(C=C)nc2c(C)cccc21	5.58 µM (inactive)
C/C(=N\NC(N)=S)c1ccc(/C(C)=N/NC(N)=S)cc1	> 100 µM (inactive)
CCOP(=O)(OCC)/C(C#N)=C/c1coc2cc(C)cc(C)c2c1=O	> 100 µM (inactive)
CC(=O)OC12c3ccccc3C(c3ccccc31)C1C(=O)N(N=C(C)C)C(=O)C12 (centres undefined)	> 100 µM (inactive)
CCOC(=O)N1c2ccccc2S(=O)(=O)c2ccccc21	> 100 µM (inactive)
CC(=O)c1ccc2c(c1)CC1(C2)Cc2ccccc2C1=O (centres undefined)	56 µM (inactive)
O=C(Nc1ccc([As](=O)(O)O)cc1)Nc1cccc(Cl)c1Cl	65.5 µM (inactive)
NC(=O)C(=Cc1ccc(C(O)P(=O)(O)O)cc1)C(N)=O (centres undefined)	> 100 µM (inactive)
COC(=O)CCC1(C)C2CCC1/C(=N/O)C2 (centres undefined)	> 100 µM (inactive)
NC(=O)NC(=O)Nc1ccc(Br)cc1	14.7 µM (inactive)
O=C(NNC(=S)Nc1cccc(Cl)c1)c1cc(-c2ccccc2)nc2ccccc12	11.7 µM (inactive)
O=C1C(c2ccccc2)=C(c2ccccc2)C(c2ccccc2)/C1=C1\C(=O)C(c2ccccc2)=C(c2ccccc2)C1c1ccccc1 (centres undefined)	> 100 µM (inactive)
COC(=O)c1ccc2c(c1)CC1(C2)Cc2cc3c(cc2C1=O)CCC3 (centres undefined)	56.5 µM (inactive)
Nc1c(Br)c(=O)[nH]c(=O)n1COCCO	> 100 µM (inactive)
CC(=O)OCCOCNC(=S)N/N=C/c1ccc([N+](=O)[O-])s1	40.4 µM (inactive)

---

Test system: 786-0
method: NCI tumour cell line growth inhibition, 48 h
The source made the active and inactive calls. No stated cut-off is given here; in the data, active = GI50 up to about 1.1 µM and inactive = higher.
Possible outcomes: label 1 = active, label 0 = inactive

compound	target-or-system	group-label
COc1ccc2c3c([nH]c(=O)c2c1C(=O)O)-c1ccccc1CC3	786-0	label 0
B.CC(=O)OC1CN2CCC1CC2 (stereo not drawn)	786-0	label 0
CCCCCCOc1ccc(NC2=C(Cl)C(=O)c3c(O)ccc(O)c3C2=O)cc1	786-0	label 1
NC(=O)c1cn(C2OC(CO)C(O)C2O)c2nc[n+]([O-])c(N)c12 (stereo not drawn)	786-0	label 1
CCOC(=O)N(c1ccccc1)N(CC)C(=O)/C(C)=N/Nc1ccc([N+](=O)[O-])cc1	786-0	label 0
COc1ccc2o/c(=N\c3ccc(F)cc3)c(C(N)=O)cc2c1	786-0	label 0
COC(=O)C1(C)CCCC2(C)C3CCC4CC3(C=C4CO)CCC12 (stereo not drawn)	786-0	label 0
O=c1cc(-c2ccccc2)nc(-n2[nH]c3c(c2=O)CCCC3)[nH]1	786-0	label 0
Cc1cc(NS(=O)(=O)c2ccc(Nc3c4ccccc4nc4c(C(=O)Nc5ccc(S(=O)(=O)N=C(N)N)cc5)cccc34)cc2)no1	786-0	label 0
CC(C)CCNC(=O)c1ccc(CNC(=O)/C=C/c2ccc(-c3ccccc3[N+](=O)[O-])o2)cc1	786-0	label 0
CCCCCCCCCCOC1C(C(O)CNCCCN(C)C)OC2OC3(CCCCC3)OC21 (stereo not drawn)	786-0	label 0
NC(=O)NC(=O)Nc1ccc(Br)cc1	786-0	label 0
Cc1c(O)c(C)c2c(C)cn(C(=O)C(C)(C)C)c2c1C	786-0	label 0
O=c1c2ccccc2[nH]c(=S)n1-c1ccc(/N=N/c2cccc3c(O)cccc23)cc1	786-0	label 0
Cc1ccc2c(O)cc(-c3ccc4ccccc4c3)nc2n1	786-0	label 0
Cc1ccc(S(=O)(=O)N2CCN(CCN(C)CCN3CCN(S(=O)(=O)c4ccc(C)cc4)CC3)CC2)cc1	786-0	label 0
CCCCCCCCCCCCCCCC(=O)N[C@H]1CCc2cc(OC)c(OC)c(OC)c2-c2ccc(SC)c(=O)cc21	786-0	label 0
CC(=O)OC12c3ccccc3C(c3ccccc31)C1C(=O)N(N=C(C)C)C(=O)C12 (stereo not drawn)	786-0	label 0
Nc1c(/C=C/c2cc3cc(C4=NCCN4)ccc3o2)[nH]c2cc(C3=NCCN3)ccc12	786-0	label 0
COP(=O)(/C=C/C(NC(=O)C(Cl)(Cl)Cl)c1ccccc1)OC (stereo not drawn)	786-0	label 0
CC(=O)OC12COC1CC(O)C1(C)C(=O)C(O)C3=C(C)C(O)CC(O)(C(OC(=O)c4ccccc4)C21)C3(C)C (stereo not drawn)	786-0	label 0
Cc1ccc(S(=O)(=O)O/N=C2\CCC\C2=C/c2ccccc2)cc1	786-0	label 0
CCOC(=O)C1=C(Nc2ccc(Cl)cc2Cl)OCC1=O	786-0	label 0
CCCCCCNCCCNc1c2ccccc2nc2cccc([N+](=O)[O-])c12	786-0	label 1
CC(C)=CCc1cc(C2COc3cc4c(c(O)c3C2=O)C=CC(C)(C)O4)c(O)cc1O (stereo not drawn)	786-0	label 0
OCC(O)C(O)c1nn(-c2ccccc2)c2nc3cc(Cl)c(Cl)cc3nc12 (stereo not drawn)	786-0	label 0
O=C1C=CC(=O)C12CCc1ccccc12	786-0	label 0
CCCCCC/C=C1\CCC(CN(C)C)C1=O (stereo not drawn)	786-0	label 0
C=CCOn1c(C=C)nc2c(C)cccc21	786-0	label 0
CCOC(=O)/C(C#N)=C(/NNc1ccccc1)c1ccncc1C(=O)O	786-0	label 0
O=c1[nH]c(=O)n(C2CC(O)C(CO)O2)cc1C#Cc1c(F)c(F)c(F)c(F)c1F (stereo not drawn)	786-0	label 0
CC1OC(O[C@@H]2OC=C(C=O)[C@@]3(O)CC[C@H](C)[C@@H]23)C(O)C(O)C1O (stereo partly drawn)	786-0	label 0
O=C(C#Cc1ccccc1)N1c2ccccc2CC1c1c[nH]c2ccccc12 (stereo not drawn)	786-0	label 0
